Where do these numbers come from? They come from ChEMBL document CHEMBL1833955.

Entries below carry reported Ki on 5-hydroxytryptamine receptor 7 (Homo sapiens, UniProt P34969).
Sequence (P34969 whole entry): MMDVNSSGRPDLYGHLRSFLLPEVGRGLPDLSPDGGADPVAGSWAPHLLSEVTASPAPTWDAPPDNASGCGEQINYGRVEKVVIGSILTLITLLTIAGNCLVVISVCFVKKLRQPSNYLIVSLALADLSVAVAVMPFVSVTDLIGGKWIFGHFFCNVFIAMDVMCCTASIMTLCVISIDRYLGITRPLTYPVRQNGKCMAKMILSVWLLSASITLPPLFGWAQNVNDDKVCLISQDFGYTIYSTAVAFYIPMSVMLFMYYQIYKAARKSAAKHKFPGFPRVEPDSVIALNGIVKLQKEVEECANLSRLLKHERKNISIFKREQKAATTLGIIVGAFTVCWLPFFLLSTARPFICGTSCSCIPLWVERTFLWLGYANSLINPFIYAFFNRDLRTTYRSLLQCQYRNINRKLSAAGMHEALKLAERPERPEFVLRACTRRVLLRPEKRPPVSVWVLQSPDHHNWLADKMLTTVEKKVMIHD

| compound | tested-system | Ki |
| --- | --- | --- |
| O=C1Nc2ccc(F)cc2C1CCCCN1CC=C(c2cccc(C(F)(F)F)c2)CC1 (stereo not given) | 5-hydroxytryptamine receptor 7 (Homo sapiens, UniProt P34969) | 40 nM |
| O=C1Nc2ccccc2C1CCCCN1CCN(c2ccccn2)CC1 (stereo not given) | 5-hydroxytryptamine receptor 7 (Homo sapiens, UniProt P34969) | 10.9 nM |
| O=C1Nc2cc(F)ccc2C1CCCCN1CC=C(c2cccc(Cl)c2)CC1 (stereo not given) | 5-hydroxytryptamine receptor 7 (Homo sapiens, UniProt P34969) | 13 nM |
| CCC1(CCCCN2CCN(c3ccccn3)CC2)C(=O)Nc2ccccc21 (stereo not given) | 5-hydroxytryptamine receptor 7 (Homo sapiens, UniProt P34969) | 4 nM |
| O=C1Nc2ccccc2C1CCCCN1CC=C(c2cccc(C(F)(F)F)c2)CC1 (stereo not given) | 5-hydroxytryptamine receptor 7 (Homo sapiens, UniProt P34969) | 11.1 nM |
| CCC1(CCCCN2CCN(c3ccc(Cl)cc3)CC2)C(=O)Nc2ccc(Cl)cc21 (stereo not given) | 5-hydroxytryptamine receptor 7 (Homo sapiens, UniProt P34969) | 1.1 nM |
| CCC1(CCCCN2CCN(c3ccc(Cl)cc3)CC2)C(=O)Nc2cc(F)c(Cl)cc21 (stereo not given) | 5-hydroxytryptamine receptor 7 (Homo sapiens, UniProt P34969) | 10 nM |
| CCC1(CCCCN2CCN(c3cccc(F)c3)CC2)C(=O)Nc2ccccc21 (stereo not given) | 5-hydroxytryptamine receptor 7 (Homo sapiens, UniProt P34969) | 11 nM |
| CCC1(CCCCN2CCN(c3ccc(Cl)cc3Cl)CC2)C(=O)Nc2ccccc21 (stereo not given) | 5-hydroxytryptamine receptor 7 (Homo sapiens, UniProt P34969) | 139 nM |
| O=C1Nc2c(Cl)cc(Cl)cc2C1CCCCN1CCN(c2ccc(Cl)cc2)CC1 (stereo not given) | 5-hydroxytryptamine receptor 7 (Homo sapiens, UniProt P34969) | 107 nM |
